# test system: Ecm22 (UniProt Q05958)
# Sequence: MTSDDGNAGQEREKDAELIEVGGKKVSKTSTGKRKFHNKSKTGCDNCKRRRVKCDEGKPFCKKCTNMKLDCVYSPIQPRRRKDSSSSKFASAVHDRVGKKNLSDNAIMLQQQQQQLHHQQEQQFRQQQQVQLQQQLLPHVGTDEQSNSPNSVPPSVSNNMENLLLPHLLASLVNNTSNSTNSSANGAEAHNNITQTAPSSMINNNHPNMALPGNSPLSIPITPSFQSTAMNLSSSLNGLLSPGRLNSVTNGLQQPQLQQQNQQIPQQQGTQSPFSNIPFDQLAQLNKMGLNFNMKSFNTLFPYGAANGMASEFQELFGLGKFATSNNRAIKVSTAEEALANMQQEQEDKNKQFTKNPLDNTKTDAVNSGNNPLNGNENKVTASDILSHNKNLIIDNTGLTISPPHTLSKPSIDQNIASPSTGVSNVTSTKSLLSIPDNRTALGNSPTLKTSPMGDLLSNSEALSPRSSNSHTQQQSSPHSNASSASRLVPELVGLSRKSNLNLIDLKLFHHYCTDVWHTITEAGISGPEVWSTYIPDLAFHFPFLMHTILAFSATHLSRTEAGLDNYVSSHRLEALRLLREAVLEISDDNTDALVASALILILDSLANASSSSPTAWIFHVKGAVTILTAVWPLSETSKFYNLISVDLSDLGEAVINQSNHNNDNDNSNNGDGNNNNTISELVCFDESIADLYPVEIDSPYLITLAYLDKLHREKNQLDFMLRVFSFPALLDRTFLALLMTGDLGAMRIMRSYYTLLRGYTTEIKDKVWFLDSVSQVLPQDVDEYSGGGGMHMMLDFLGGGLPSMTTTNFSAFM
# test details: PBM E-score (8-mer binding enrichment) (E-score (-0.5 to 0.5)); higher = stronger / more preferred TF binding
# reported conditions: protein concentration: 200 nM; construct: GST-full length
Over roughly 33,000 sequences, “E-score (-0.5 to 0.5)” has its median near -0.041; the highest 2% begin near 0.37. For the sample, the highest values were picked, then their nearest neighbours and some sequences at random.
Could you label it MET if measured PBM E-score is 0.06 or higher, and NOT MET otherwise?

Observe how each entry below is paired with its result.
1. CCTCTCAA: NOT MET
2. CGCGGCTA: MET
3. CGCGTTTC: NOT MET
4. CCCCTCTA: NOT MET
5. GAACGAAC: MET
6. TGCGTACA: MET
7. CTCGTTGC: MET
8. ATTGTAGA: MET
9. CACGTTTC: NOT MET
10. ACAAACGA: MET

Answer whether PBM E-score of GCAAACAA is greater than or equal to 0.06. MET

Would you say GACCCGGA shows PBM E-score at minimum 0.06? NOT MET

Reported PBM E-score reaches at least 0.06 for GCCGTAAA ? MET

Record AACTGCAA ; criterion: PBM E-score no lower than 0.06. Met? NOT MET

API: above_or_equal(metric=PBM E-score, cutoff=0.06) for item ACCGTAAG MET

I'd appreciate it if you could say whether GAACGGAC has PBM E-score at least equal to 0.06. MET

Does the sequence AAGCGAAC have recorded PBM E-score that is 0.06 or more? MET
